Target: T1, MBP-fused PDZ domain 1 of PDZRN4 (human, UniProt Q6ZMN7 224-314)
T1 sequence (looked up): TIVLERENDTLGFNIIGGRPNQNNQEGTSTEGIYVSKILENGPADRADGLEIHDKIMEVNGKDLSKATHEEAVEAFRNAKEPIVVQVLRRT
Experiment: holdup assay
Where no end group is shown, it is not given here. [ ]: non-standard residue; d: D form. The star is where a group is joined. Biotin = O=C1N[C@H]2[C@H](CS[C@H]2CCCCC(=O)*)N1; TTDS = NCCCOCCOCCOCCCNC(=O)CCC(=O)*; pS = N[C@@H](COP(=O)(O)O)C(=O)O
Below, each of the binders is paired with its reported Kd value.
Could you give me the number in µM? Just the number is fine.

{"Binder": "{Biotin-TTDS}-RRVRKLP[pS]TTL (peptide, UniProt Q15418 725-735, looked up) [biotinylated RSK1 725-735 peptide, phosphorylated at Ser732 (position -3)]", "Kd, µM": 12.6}

Next item in the queue.
For the binder {Biotin-TTDS}-RRVRKLPSTTL (peptide, UniProt Q15418 725-735, looked up) [biotinylated RSK1 725-735 peptide, unphosphorylated] , give its measured Kd value. 14.4

The measurements presented in this section are drawn from paper PMC6424611.
